Values compiled from patent US20110150903A1.

// reported ELISA signal (OD, 450 nm) per item
- Assay Target: T1, hFGFR1-Fc (human)
- T1 construct: Extracellular domain of human FGF-R1 IIIc fused C-terminally to the Fc domain of human IgG1
- Experiment Summary: phage Fab ELISA on coated antigen, anti-M13 detection
Measurement Name: ELISA signal (OD, 450 nm) (OD 450 nm)

binder="clone 31 in the Fab format displayed on phage (Fab, V domains shown) VH: EVQLLESGGGLVQPGGSLRLSCAASGFTFSRYFMKWVRQAPGKGLEWVSWISPSGGLTEYADSVKGRFTISRDNSKNTLYLQMNSLRAEDTAVYYCARASYGAWLDYWGQGTLVTVSS VL: DIQMTQSPSSLSLSPGERATLSCRASQSINRNLGWYQQKPGQAPRLLIYGASTRATGIPARFTGSGSGTEFSLTISSLQSEDYAIYYCQQYDNWPIIFGQGTRLEIKG" measured_number=0
binder="clone 33 in the Fab format displayed on phage (Fab, V domains shown) VH: EVQLLESGGGLVQPGGSLRLSCAASGFTFSTYWMAWVRQAPGKGLEWVSVIGPSGGMTVYADSVKGRFTISRDNSKNTLYLQMNSLRAEDTAVYYCARINSGSSHFDYWGQGTLVTVSS VL: QSVLTQPPSASGTPGQGVTISCSGSSSNIGSNSVNWYQQLPGAAPKLLIYSNNLRPSGVPARFSGSKSGTSASLAISGLRSEDEADYYCAAWDDGLDAYVVFGGGTKLTVLG" measured_number=0
binder="clone 8 in the Fab format displayed on phage (Fab, V domains shown) VH: EVQLLESGGGLVQPGGSLRLSCAASGFTFSPYWMGWVRQAPGKGLEWVSVIWPSGGTTDYADSVKGRFTISRDNSKNTLYLQMNSLRAEDTAVYYCARVHPAGHNDHWGQGTLVTVSS VL: QSELTQPPSASGTPGQRVTISCSGGYSNMGSNYAHWYQQLPGTAPKLLIYNNNQRPSGVPDRFSGSKSGTSASLAISGLRSEDEADYYCAAWDDSLSGPVFGGGTKLTVLG" measured_number=0.05
binder="clone 36 in the Fab format displayed on phage (Fab, V domains shown) VH: EVQLLESGGGLVQPGGSLRLSCAASGFTFSHYWMGWVRQAPGKGLEWVSVISPSGGLTIYADSVKGRFTISRDNSKNTLYLQMNSLRAEDTAVYYCARSSGWALDAFDIWGQGTMVTVSS VL: QYELTQPPSASGTPGQRVTISCSGSSSNIGSNIVHWYQQLPGTAPKLLIYGNNQRPSGVPDRFSVSKSGSSASLAISGLQSEDEADYYCASWDDSLKAFYVFGTGTKVTVLG" measured_number=-0.01
